# reported EC50; entries follow
biological target: human CB1 receptors (Homo sapiens, UniProt P21554); construct: expressed in transfected cells; host or cells: CHO cells; assay: functional cAMP assay, human CB1; assay type: cell-based; settings: CHO cells expressing human CB1, cAMP; read-out: human CB1 EC50
Sequence (P21554 whole entry): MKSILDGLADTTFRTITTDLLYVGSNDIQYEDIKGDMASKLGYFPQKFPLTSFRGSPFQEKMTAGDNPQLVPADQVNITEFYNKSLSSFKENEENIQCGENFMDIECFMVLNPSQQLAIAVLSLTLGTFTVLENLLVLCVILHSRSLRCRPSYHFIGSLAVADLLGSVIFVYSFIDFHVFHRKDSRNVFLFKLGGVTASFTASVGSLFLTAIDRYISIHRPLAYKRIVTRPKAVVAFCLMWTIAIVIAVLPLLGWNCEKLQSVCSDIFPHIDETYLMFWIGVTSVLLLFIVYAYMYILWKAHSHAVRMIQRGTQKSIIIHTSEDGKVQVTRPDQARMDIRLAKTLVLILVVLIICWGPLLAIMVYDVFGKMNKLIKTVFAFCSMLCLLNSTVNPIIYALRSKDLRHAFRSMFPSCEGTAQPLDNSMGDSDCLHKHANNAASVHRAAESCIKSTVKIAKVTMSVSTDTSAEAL
recorded_endpoint: EC50

| compound | result |
| --- | --- |
| Cc1nonc1Cn1nnc2c(N3CCC(F)(F)C3)nc(C(C)(C)C)nc21 | > 10 µM |
| CC(C)(C)c1nc(N2CCC(F)(F)C2)c2nnn(Cc3nc(C(F)(F)F)no3)c2n1 | > 10 µM |
| CC(C)(C)c1nc(N2CCSC2)c2nnn(Cc3ccccc3Cl)c2n1 | 0.131 µM |
| Cn1nnnc1Cn1nnc2c(N3CC[C@H](O)[C@@H]3CO)nc(C(C)(C)C)nc21 | > 10 µM |
| COC[C@H]1CCCN1c1nc(C(C)(C)C)nc2c1nnn2Cc1ccccc1Cl | > 10 µM |
| CC(C)(C)c1nc(N2CC[C@H](O)[C@@H]2CO)c2nnn(Cc3ccccc3Cl)c2n1 | > 10 µM |
| CC(C)(C)c1nc(N2CCC(F)(F)C2)c2nnn(Cc3nnnn3C3CC3)c2n1 | > 10 µM |
| CC(C)(C)c1nc(N2CCC2)c2nnn(Cc3ccccc3Cl)c2n1 | 1.09 µM |
| Cn1ncnc1Cn1nnc2c(N3CC[C@H](O)C3)nc(C(C)(C)C)nc21 | > 10 µM |
| CC(C)(C)c1nc(N2CC[C@](C)(O)C2)c2nnn(CCC(F)(F)F)c2n1 | > 10 µM |
| Cc1nnc(Cn2nnc3c(N4CC[C@@](C)(O)C4)nc(C(C)(C)C)nc32)o1 | > 10 µM |
| Cc1nonc1Cn1nnc2c(N3CC(F)(F)C(F)(F)C3)nc(C(C)(C)C)nc21 | > 10 µM |
| CC1COCCN1c1nc(C(C)(C)C)nc2c1nnn2Cc1ccccc1Cl (centres unmarked) | > 10 µM |
| CC(C)(C)c1nc(N2C[C@@H](O)[C@@H](O)C2)c2nnn(Cc3ccccc3Cl)c2n1 | > 10 µM |
| CC(C)(C)c1nc(OCC2CC2)c2nnn(Cc3ccccc3Cl)c2n1 | > 10 µM |
| CC(C)(C)c1nc(N2CC[C@H](O)[C@@H]2CO)c2nnn(Cc3ncccc3Cl)c2n1 | > 10 µM |
| COc1nc(C(C)(C)C)nc2c1nnn2Cc1ccccc1Cl | > 10 µM |
